Assay: Inhibition of Escherichia coli MsbA preincubated for 10 mins followed by ATP addition and incubated for 1 hr by fluorescence polarization assay
measured_quantity: IC50 (nM)

Record excerpt, results attached:
molecule	measured_quantity	value_reported
Cc1c(/C=C/C(=O)O)cnc2ccc(O[C@@H](C)c3c(Cl)ccc(F)c3Cl)cc12	IC50	20
C[C@H](Oc1ccc2ncc(/C=C/S(=O)(=O)O)c(C3CC3)c2c1)c1c(Cl)ccc(F)c1Cl	IC50	14
C[C@H](Oc1ccc2ncc(/C=C/C(=O)O)c(C(F)F)c2c1)c1c(Cl)ccc(F)c1Cl	IC50	8
C[C@H](Oc1ccnc(C2CC2)c1)c1c(Cl)ccc(F)c1Cl	IC50	3400
C[C@H](Oc1ccc2ncc(/C=C/C(=O)N3CC[C@@H](N)[C@H](C(=O)O)C3)c(C3CC3)c2c1)c1c(Cl)ccc(F)c1Cl (mixture of isomers)	IC50	5

[a] C[C@H](Oc1ccc(NC(=O)CC(N)=O)c(C2CC2)c1)c1c(Cl)ccc(F)c1Cl
[b] C[C@H](Oc1ccc(/C=C/C(=O)O)cc1)c1c(Cl)ccc(F)c1Cl
[c] C[C@H](Oc1ccc2ncc(/C=C/C(=O)NS(C)(=O)=O)c(C3CC3)c2c1)c1c(Cl)cccc1Cl
Order the 3 molecules from highest to lowest IC50. Would you mind listing the labels in the order asked for?
b, a, c
(b: 5800 nM, a: 40 nM, c: 2 nM)

====

Assay: Inhibition of Escherichia coli MsbA preincubated for 10 mins followed by ATP addition and incubated for 1 hr by fluorescence polarization assay
measured_quantity: IC50 (nM)

[A] C[C@H](Oc1cc(CC#N)c2ncc(/C=C/C(=O)O)c(C3CC3)c2c1)c1c(Cl)ccc(F)c1Cl
[B] C[C@H](Oc1ccc2c(c1)c(C1CC1)c(/C=C/C(=O)O)c[n+]2[O-])c1c(Cl)ccc(F)c1Cl
[C] C[C@H](Oc1ccc2ncc(/C=C/C(=O)O)c(C#N)c2c1)c1c(Cl)ccc(F)c1Cl
Sort the items above on IC50, descending. Would you mind listing the labels in the order asked for?
C, A, B

[a] C[C@H](Oc1ccc2ncc(S(=O)(=O)CC(=O)O)c(C3CC3)c2c1)c1c(Cl)ccc(F)c1Cl
[b] C[C@H](Oc1ccc(NC(=O)CC(=O)O)c(C2CC2)n1)c1c(Cl)ccc(F)c1Cl
[c] C[C@H](Oc1ccc2ncc(CCC(=O)O)c(C3CC3)c2c1)c1c(Cl)ccc(F)c1Cl
[d] C[C@H](Oc1ccc2ncc(O)c(C3CC3)c2c1)c1c(Cl)ccc(F)c1Cl
[e] C[C@H](Oc1ccc2nnc(/C=C/C(=O)O)c(C3CC3)c2c1)c1c(Cl)ccc(F)c1Cl
Order the 5 compounds from highest to lowest IC50. Would you mind listing the labels in the order asked for?
a, d, e, b, c

====

Experiment: Inhibition of Escherichia coli MsbA preincubated for 10 mins followed by ATP addition and incubated for 1 hr by fluorescence polarization assay
pIC50: −log10 of the molar value.
measured_quantity: pIC50

[A] C[C@H](Oc1ccc(NC(=O)CC(=O)O)c(C2CC2)c1)c1c(Cl)ccc(F)c1Cl
[B] C[C@H](Oc1ccnc(C2CC2)n1)c1c(Cl)ccc(F)c1Cl
# returns the entry with the larger pIC50; inputs A and B API: response body contains the label of the selected item.
A
(A: 7.22, B: 6.35)

====

Experiment: Inhibition of Escherichia coli MsbA preincubated for 10 mins followed by ATP addition and incubated for 1 hr by fluorescence polarization assay
pIC50: −log10 of the molar value.
measured_quantity: pIC50

Record excerpt, results attached:
compound	measured_quantity	value_reported
C[C@H](Oc1cc(B(O)O)c2ncc(/C=C/C(=O)O)c(C3CC3)c2c1)c1c(Cl)ccc(F)c1Cl	pIC50	6.82
C[C@H](Oc1ccc2ncc(/C=C/C(=O)O)c(-n3ccnc3)c2c1)c1c(Cl)ccc(F)c1Cl	pIC50	5.66
CC(Oc1ccc2ncc(/C=C/C(=O)O)cc2c1)C1CCCCC1 (stereo unspecified)	pIC50	4.41

[1] C[C@H](Oc1ccc(/C=C/C(=O)O)c(C2CC2)c1)c1c(Cl)ccc(F)c1Cl
[2] C[C@H](Oc1cnc2cnc(/C=C/C(=O)O)c(C3CC3)c2c1)c1c(Cl)cccc1Cl
# returns the entry with the larger pIC50; inputs 1 and 2 API: response body contains the label of the selected item.
2
(2: 7.92, 1: 7.00)

====

Experiment: Lipophilicity, logD of compound by shake flask method
Format: physicochemical
Conditions: octanol/water
measured_quantity: logD

molecule	logD
C[C@H](Oc1ccc2ncc(S(=O)(=O)CC(=O)O)c(C3CC3)c2c1)c1c(Cl)ccc(F)c1Cl	2.5
C[C@H](Oc1ccc2ncc(/C=C/c3nn[nH]n3)c(C(F)F)c2c1)c1c(Cl)cccc1Cl	3.3
C[C@H](Oc1ccc2ncc(/C=C/C(=O)N3CC[C@@H](N)[C@H](C(=O)O)C3)c(C3CC3)c2c1)c1c(Cl)ccc(F)c1Cl (mixture of isomers)	3.1
Cc1c(/C=C/C(=O)O)cnc2ccc(O[C@@H](C)c3c(Cl)ccc(F)c3Cl)cc12	3
CC(Oc1ccc2ncc(/C=C/C(=O)O)c(C3CC3)c2c1)c1c(Cl)cccc1C#N (stereo not given)	2.2
C[C@H](Oc1ccc2ncc(/C=C/C(=O)O)c(C3CC3)c2c1)c1c(Cl)ccc(N)c1Cl	2.8
C[C@H](Oc1ccc2ncc(/C=C/C(=O)O)c(C3CC3)c2c1)c1c(Cl)cccc1Cl	3.7
C[C@H](Oc1ccc2ncc(/C=C/c3nn[nH]n3)c(C3CC3)c2c1)c1c(Cl)ccc(F)c1Cl	3.7
C[C@H](Oc1ccc(/C=C/C(=O)O)cc1)c1c(Cl)ccc(F)c1Cl	2.8

====

Assay: Lipophilicity, logD of compound by shake flask method
Format: physicochemical
Details: octanol/water
measured_quantity: logD

smiles_repr	logD
C[C@H](Oc1ccc2nnc(/C=C/C(=O)O)c(C3CC3)c2c1)c1c(Cl)ccc(F)c1Cl	3.2

[A] C[C@H](Oc1ccc2ncc(/C=C/c3nn[nH]n3)c(C3CC3)c2c1)c1c(Cl)cccc1Cl
[B] C[C@H](Oc1ccc2ncc(-c3ccn(CCC(=O)O)n3)c(C3CC3)c2c1)c1c(Cl)cccc1Cl
For the pair A and B , which entry has the numerically smaller recorded logD? API: response body contains the label of the selected item.
B

====

Assay: Inhibition of Escherichia coli MsbA preincubated for 10 mins followed by ATP addition and incubated for 1 hr by fluorescence polarization assay
pIC50: −log10 of the molar value.
measured_quantity: pIC50

smiles_repr	pIC50
Cc1cnn(C)c1[C@H](C)Oc1ccc2ncc(/C=C/C(=O)O)c(C3CC3)c2c1	< 5.00
C[C@H](Oc1ccc2ncc(/C=C/c3nn[nH]n3)c(C(F)F)c2c1)c1c(Cl)cccc1Cl	8.10

Quick check: pIC50 of C[C@H](Oc1cccc(C2CC2)n1)c1c(Cl)ccc(F)c1Cl ?
< 5.00

====

Test: Inhibition of Escherichia coli MsbA preincubated for 10 mins followed by ATP addition and incubated for 1 hr by fluorescence polarization assay
measured_quantity: IC50 (nM)

Record excerpt, results attached:
molecule	unit_string	IC50
C[C@H](Oc1nccc(N(c2nc(C(=O)O)cs2)C2CC2)n1)c1c(Cl)ccc(F)c1Cl	nM	46
C[C@H](Oc1ccc2nc(OCCN)c(CCC(=O)O)c(C3CC3)c2c1)c1c(Cl)ccc(F)c1Cl	nM	32

[P] CC(Oc1ccc2ncc(/C=C/C(=O)O)c(C3CC3)c2c1)c1c(Cl)cccc1C#N (stereo unspecified)
[Q] C[C@H](Oc1ccc2ncc(/C=C/c3nn[nH]n3)c(C3CC3)c2c1)c1c(Cl)ccc(F)c1Cl
[R] C[C@H](Oc1ccc2ncc(/C=C/C(=O)O)c(N(C)C)c2c1)c1c(Cl)ccc(F)c1Cl
Arrange the 3 molecules by rising IC50, starting with the smallest. Would you mind listing the labels in the order asked for?
Q, P, R
(Q: 3 nM, P: 24 nM, R: 290 nM)

[I] C[C@H](Oc1ccc2ncc(/C=C/C(=O)O)c(CF)c2c1)c1c(Cl)ccc(F)c1Cl
[II] C[C@H](Oc1ccc2ncc(/C=C/C(=O)NC(CC(=O)O)CC(=O)O)c(C3CC3)c2c1)c1c(Cl)ccc(F)c1Cl
For the pair I and II , which entry has the numerically smaller recorded IC50? API: response body contains the label of the selected item.
II

[A] C[C@H](Oc1cc(CO)c2ncc(/C=C/C(=O)O)c(C3CC3)c2c1)c1c(Cl)ccc(F)c1Cl
[B] C[C@H](Oc1ccc2ncc(/C=C/C(=O)O)c(C3CC3)c2c1)c1c(Cl)ccnc1Cl
# returns the entry with the larger IC50; inputs A and B API: response body contains the label of the selected item.
B
(B: 18 nM, A: 10 nM)
